Values compiled from patent EP0259014A2.

Test system: Escherichia coli K-12 R5
PROPERTY LABEL: MIC (µg/mL)
Answer with a number only, understood to be in µg/mL.

Example cases with answers are listed next.
NCC[C@H](O)C(=O)N[C@@H]1C[C@H](N)[C@@H](O[C@H]2O[C@H](CN)[C@@H](O)[C@H](O)[C@H]2N)[C@H](F)[C@H]1O[C@H]1O[C@H](CO)[C@@H](O)[C@H](N)[C@H]1O = 12.5
NCC(O)C(=O)N[C@@H]1C[C@H](N)[C@@H](O[C@H]2O[C@H](CN)[C@@H](O)C[C@H]2N)[C@H](F)[C@H]1O[C@H]1O[C@H](CO)[C@@H](O)[C@H](N)[C@H]1O (stereo partly drawn) = 6.25

With those in mind, consider the next molecule.
Report the value of MIC obtained on Escherichia coli K-12 R5 for NCC[C@H](O)C(=O)N[C@@H]1C[C@H](N)[C@@H](O[C@H]2O[C@H](CN)[C@@H](O)[C@H](O)[C@H]2O)[C@H](O)[C@H]1O[C@H]1O[C@H](CO)[C@@H](O)[C@H](N)[C@H]1O [AMK, reference compound] .
25
